# Study System: lyophilized human pancreated fluid obtained by cannulation of the pancreatic duct outlet (E2)
# Experiment Summary: Inhibition constants (Ki) with human pancreatic fluid elastase and chromogenic substrates
# Type: biochemical
# Condition Context: Table 2, substrate Glt-(Ala)4-NAn, read-out: Ki, Glt-(Ala)4-NAn, E2
pKi: −log10 of the molar value. Starred links: 1 amine or outer side, 2 acyl side, 3 side chain; linkers in the order of their positions; H or OH if unused. Residues, ends and D or L forms follow the SMILES beside them. Glutaryl = O=C(CCCC(=O)[*:2])[*:1]; Suc = O=C(CCC(=O)[*:2])[*:1]
Endpoint Label: pKi

Consider the following illustrative entries.
[
  {
    "Compound": "CCNC(=O)[C@H](C)NC(=O)[C@H](C)NC(=O)[C@H](C)NC(=O)C=CC(=O)O",
    "pKi": 3.93
  },
  {
    "Compound": "CCNC(=O)[C@@H]1CCCN1C(=O)[C@H](C)NC(=O)[C@H](C)NC(=O)CCC(=O)O [Suc--Ala--Ala--Pro--NH--Et] (Suc-Ala-Ala-Pro-NHEt)",
    "pKi": 4.77
  },
  {
    "Compound": "CCCNC(=O)[C@H](C)NC(=O)[C@H](C)NC(=O)[C@H](C)NC(=O)CCCC(=O)O",
    "pKi": 5.35
  },
  {
    "Compound": "CCNC(=O)[C@H](C)NC(=O)[C@H](C)NC(=O)[C@H](C)NC(=O)CCCC(=O)O",
    "pKi": 4.72
  },
  {
    "Compound": "CCNC(=O)[C@@H]1CCCN1C(=O)[C@H](C)NC(=O)[C@H](C)NC(=O)CCCC(=O)O [Glt--Ala--Ala--Pro--NH--Et] (Glutaryl-Ala-Ala-Pro-NHEt)",
    "pKi": 4.86
  }
]

(P) CCCNC(=O)[C@H](C)NC(=O)[C@H](C)NC(=O)[C@H](C)NC(=O)CCC(=O)O
(Q) CCNC(=O)[C@H](C)NC(=O)[C@H](C)NC(=O)[C@H](C)NC(=O)CCC(=O)O
(R) CCNC(=O)[C@H](C)NC(=O)[C@H](C)NC(=O)[C@H](C)NC(C)=O [Ac--(Ala)3 --NH--Et, reference compound]
Arrange by pKi, high to low. Give the order by naming the labels one after another as requested. P, Q, R
(P: 4.85, Q: 4.33, R: 3.93)

----------
# Study System: UniProtKB P00772
# Sequence (P00772 27-266): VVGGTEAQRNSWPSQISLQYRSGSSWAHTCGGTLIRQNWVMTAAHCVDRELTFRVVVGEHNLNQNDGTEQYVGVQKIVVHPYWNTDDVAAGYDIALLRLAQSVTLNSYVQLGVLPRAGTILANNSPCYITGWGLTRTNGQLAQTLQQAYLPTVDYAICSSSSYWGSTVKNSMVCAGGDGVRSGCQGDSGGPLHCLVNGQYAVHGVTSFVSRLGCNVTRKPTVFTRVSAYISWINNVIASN
# Experiment Summary: Inhibition constants (Ki) with pancreatic elastase and chromogenic p-nitroanilide substrates
# Format: biochemical
# Condition Context: Table 1; pancreatic elastase; substrate Suc-(Ala)4-NAn; read-out: Ki, substrate Suc-(Ala)4-NAn
Starred links: 1 amine or outer side, 2 acyl side, 3 side chain; linkers in the order of their positions; H or OH if unused. Residues, ends and D or L forms follow the SMILES beside them. *: point of attachment. Glutaryl = O=C(CCCC(=O)[*:2])[*:1]; NHPhenethyl = c1ccc(CCN*)cc1; Suc = O=C(CCC(=O)[*:2])[*:1]
Endpoint Label: Ki (µM)

[
  {
    "Molecule": "CNC(=O)[C@H](C)NC(=O)[C@H](C)NC(=O)[C@H](C)NC(=O)CCCC(=O)O [Glt--(Ala)3 --NH--Me]",
    "Study System": "UniProtKB P00772",
    "Test Result": 280
  },
  {
    "Molecule": "CC(C)CNC(=O)[C@H](C)NC(=O)[C@H](C)NC(=O)[C@H](C)NC(=O)CCCC(=O)O [Glt--(Ala)3 --NH--iBu]",
    "Study System": "UniProtKB P00772",
    "Test Result": 668
  },
  {
    "Molecule": "CCNC(=O)[C@H](C)NC(=O)[C@H](C)NC(=O)CCCC(=O)O [Glt--(Ala)2 --NH--Et] (Glutaryl-Ala-Ala-NHEt)",
    "Study System": "UniProtKB P00772",
    "Test Result": 68.1
  },
  {
    "Molecule": "CC(C)CNC(=O)[C@@H]1CCCN1C(=O)[C@H](C)NC(=O)CCC(=O)O [Suc--Ala--Pro--NH--iBu]",
    "Study System": "UniProtKB P00772",
    "Test Result": 2040
  },
  {
    "Molecule": "CNC(=O)[C@H](C)NC(=O)[C@H](C)NC(=O)[C@H](C)NC(=O)CCC(=O)O [Suc--(Ala)3 --NH--Me]",
    "Study System": "UniProtKB P00772",
    "Test Result": 510
  },
  {
    "Molecule": "CC(C)CNC(=O)[C@H](C)NC(=O)[C@H](C)NC(=O)[C@H](C)NC(=O)CCC(=O)O [Suc--(Ala)3 --NH--iBu]",
    "Study System": "UniProtKB P00772",
    "Test Result": 816
  },
  {
    "Molecule": "C[C@H](NC(=O)CCC(=O)O)C(=O)N[C@@H](C)C(=O)NCCc1ccccc1 [Suc--(Ala)2 --NH--EtPh] (Suc-Ala-Ala-NHPhenethyl)",
    "Study System": "UniProtKB P00772",
    "Test Result": 1460
  },
  {
    "Molecule": "CCNC(=O)[C@H](C)NC(=O)[C@H](C)NC(=O)CCC(=O)O [Suc--(ala)2 --NH--Et] (Suc-Ala-Ala-NHEt)",
    "Study System": "UniProtKB P00772",
    "Test Result": 95.2
  }
]

(A) CCNC(=O)[C@@H]1CCCN1C(=O)[C@H](C)NC(=O)CCC(=O)O [Suc--Ala--Pro--NH--Et] (Suc-Ala-Pro-NHEt)
(B) CCCNC(=O)[C@H](C)NC(=O)[C@H](C)NC(=O)[C@H](C)NC(=O)CCC(=O)O [Suc--(Ala)3 --NH--Pr]
Of A and B , whose reported Ki is numerically smaller? Respond using the label that marks the chosen record. B
